Hey, just so you know, these numbers are from paper PMC6264295.

assay_method_text: RP-HPLC determination of capacity factors and log Po/w (Supelcosil LC-ABZ, MOPS buffer pH 7.4/methanol)
test_settings: extrapolated to 0% methanol, pH 7.4
experimental_endpoint: Capacity factors log k’0

{"compound": "Cc1c(C(=O)NCc2ccc(Br)cc2)[n+]([O-])c2cc(Cl)ccc2[n+]1[O-] [Compound 20]", "experimental_endpoint": "Capacity factors log k’0", "quantitative_result": 2.83}
{"compound": "Cc1c(C(=O)NCc2ccccc2)[n+]([O-])c2cc(Cl)c(Cl)cc2[n+]1[O-] [Compound 13]", "experimental_endpoint": "Capacity factors log k’0", "quantitative_result": 2.46}
{"compound": "Cc1ccc(CNC(=O)c2c(C)[n+]([O-])c3ccccc3[n+]2[O-])cc1 [Compound 22]", "experimental_endpoint": "Capacity factors log k’0", "quantitative_result": 2.02}
{"compound": "Cc1ccc(CNC(=O)c2c(C)[n+]([O-])c3ccc(C)cc3[n+]2[O-])cc1 [Compound 23]", "experimental_endpoint": "Capacity factors log k’0", "quantitative_result": 2.02}
{"compound": "Cc1c(C(=O)NCc2ccccc2)[n+]([O-])c2ccccc2[n+]1[O-] [Compound 10]", "experimental_endpoint": "Capacity factors log k’0", "quantitative_result": 1.49}
{"compound": "Cc1ccc2c(c1)[n+]([O-])c(C(=O)NCC(c1ccccc1)c1ccccc1)c(C)[n+]2[O-] [Compound 27]", "experimental_endpoint": "Capacity factors log k’0", "quantitative_result": 3.02}
{"compound": "Cc1c(C(=O)NCCc2ccccc2)[n+]([O-])c2cc(Cl)c(Cl)cc2[n+]1[O-] [Compound 17]", "experimental_endpoint": "Capacity factors log k’0", "quantitative_result": 2.60}
{"compound": "Cc1c(C(=O)NCc2ccc(Br)cc2)[n+]([O-])c2cc(Cl)c(Cl)cc2[n+]1[O-] [Compound 21]", "experimental_endpoint": "Capacity factors log k’0", "quantitative_result": 3.51}
{"compound": "Cc1c(C(=O)NCc2ccccc2)[n+]([O-])c2cc(Cl)ccc2[n+]1[O-] [Compound 12]", "experimental_endpoint": "Capacity factors log k’0", "quantitative_result": 1.98}
{"compound": "Cc1ccc(CNC(=O)c2c(C)[n+]([O-])c3cc(Cl)c(Cl)cc3[n+]2[O-])cc1 [Compound 25]", "experimental_endpoint": "Capacity factors log k’0", "quantitative_result": 2.91}
{"compound": "Cc1ccc2c(c1)[n+]([O-])c(C(=O)NCc1ccc(Br)cc1)c(C)[n+]2[O-] [Compound 19]", "experimental_endpoint": "Capacity factors log k’0", "quantitative_result": 2.43}
{"compound": "Cc1c(C(=O)NCC(c2ccccc2)c2ccccc2)[n+]([O-])c2cc(Cl)ccc2[n+]1[O-] [Compound 28]", "experimental_endpoint": "Capacity factors log k’0", "quantitative_result": 3.42}

----------
assay_method_text: RP-HPLC determination of capacity factors and log Po/w (Supelcosil LC-ABZ, MOPS buffer pH 7.4/methanol)
test_settings: extrapolated to 0% methanol, pH 7.4
With a cut-off of 2, any Capacity factors log k’0 strictly below it is called Fulfilled; any Capacity factors log k’0 meeting it or above is called Not fulfilled.

{"compound": "Cc1c(C(=O)NCc2ccc(Br)cc2)[n+]([O-])c2ccccc2[n+]1[O-] [Compound 18]", "assigned_class": "Not fulfilled"}
{"compound": "Cc1c(C(=O)NCCc2ccccc2)[n+]([O-])c2cc(Cl)ccc2[n+]1[O-] [Compound 16]", "assigned_class": "Not fulfilled"}
{"compound": "Cc1ccc2c(c1)[n+]([O-])c(C(=O)NCc1ccccc1)c(C)[n+]2[O-] [Compound 11]", "assigned_class": "Fulfilled"}
{"compound": "Cc1c(C(=O)NCCc2ccccc2)[n+]([O-])c2ccccc2[n+]1[O-] [Compound 14]", "assigned_class": "Fulfilled"}
{"compound": "Cc1ccc(CNC(=O)c2c(C)[n+]([O-])c3ccc(Cl)cc3[n+]2[O-])cc1 [Compound 24]", "assigned_class": "Not fulfilled"}
{"compound": "Cc1c(C(=O)NCC(c2ccccc2)c2ccccc2)[n+]([O-])c2cc(Cl)c(Cl)cc2[n+]1[O-] [Compound 29]", "assigned_class": "Not fulfilled"}
{"compound": "Cc1c(C(=O)NCC(c2ccccc2)c2ccccc2)[n+]([O-])c2ccccc2[n+]1[O-] [Compound 26]", "assigned_class": "Not fulfilled"}
{"compound": "Cc1ccc2c(c1)[n+]([O-])c(C(=O)NCCc1ccccc1)c(C)[n+]2[O-] [Compound 15]", "assigned_class": "Fulfilled"}

----------
Quick list: Capacity factors log k’40 per entry.
assay_method_text: RP-HPLC determination of capacity factors and log Po/w (Supelcosil LC-ABZ, MOPS buffer pH 7.4/methanol)
test_settings: 40% methanol, MOPS buffer pH 7.4
Protocol: The RP-HPLC methods of Minick and Lombardo [53] were considered for estimating the n-octanol/water partition coefficients (log Po/w) of QdO. […] The other chromatographic conditions were: flow 1.0 mL/min^−1; isocratic elution, UV-visible detector set at the wavelength with maximum absorbance (260 and 210 nm). […] The capacity factors were calculated according to Equation (2): […] The robustness of the model and its predictivity were evaluated by the leave-one-out (LOO) cross-validation procedure. […]
experimental_endpoint: Capacity factors log k’40

{"compound": "Cc1c(C(=O)NCc2ccccc2)[n+]([O-])c2ccccc2[n+]1[O-] [Compound 10]", "quantitative_result": 0.28}
{"compound": "Cc1ccc2c(c1)[n+]([O-])c(C(=O)NCCc1ccccc1)c(C)[n+]2[O-] [Compound 15]", "quantitative_result": 0.47}
{"compound": "Cc1c(C(=O)NCCc2ccccc2)[n+]([O-])c2ccccc2[n+]1[O-] [Compound 14]", "quantitative_result": 0.36}
{"compound": "Cc1ccc(CNC(=O)c2c(C)[n+]([O-])c3ccc(C)cc3[n+]2[O-])cc1 [Compound 23]", "quantitative_result": 0.66}
{"compound": "Cc1c(C(=O)NCc2ccccc2)[n+]([O-])c2cc(Cl)ccc2[n+]1[O-] [Compound 12]", "quantitative_result": 0.65}
{"compound": "Cc1c(C(=O)NCc2ccc(Br)cc2)[n+]([O-])c2cc(Cl)ccc2[n+]1[O-] [Compound 20]", "quantitative_result": 1.22}
{"compound": "Cc1ccc2c(c1)[n+]([O-])c(C(=O)NCc1ccc(Br)cc1)c(C)[n+]2[O-] [Compound 19]", "quantitative_result": 0.94}
{"compound": "Cc1ccc2c(c1)[n+]([O-])c(C(=O)NCc1ccccc1)c(C)[n+]2[O-] [Compound 11]", "quantitative_result": 0.35}
{"compound": "Cc1ccc(CNC(=O)c2c(C)[n+]([O-])c3ccc(Cl)cc3[n+]2[O-])cc1 [Compound 24]", "quantitative_result": 0.93}
{"compound": "Cc1c(C(=O)NCCc2ccccc2)[n+]([O-])c2cc(Cl)ccc2[n+]1[O-] [Compound 16]", "quantitative_result": 0.69}
{"compound": "Cc1c(C(=O)NCCc2ccccc2)[n+]([O-])c2cc(Cl)c(Cl)cc2[n+]1[O-] [Compound 17]", "quantitative_result": 1.07}
{"compound": "Cc1ccc2c(c1)[n+]([O-])c(C(=O)NCC(c1ccccc1)c1ccccc1)c(C)[n+]2[O-] [Compound 27]", "quantitative_result": 1.21}
{"compound": "Cc1c(C(=O)NCc2ccccc2)[n+]([O-])c2cc(Cl)c(Cl)cc2[n+]1[O-] [Compound 13]", "quantitative_result": 0.98}
{"compound": "Cc1ccc(CNC(=O)c2c(C)[n+]([O-])c3cc(Cl)c(Cl)cc3[n+]2[O-])cc1 [Compound 25]", "quantitative_result": 1.33}
{"compound": "Cc1c(C(=O)NCc2ccc(Br)cc2)[n+]([O-])c2cc(Cl)c(Cl)cc2[n+]1[O-] [Compound 21]", "quantitative_result": 1.60}
{"compound": "Cc1c(C(=O)NCC(c2ccccc2)c2ccccc2)[n+]([O-])c2ccccc2[n+]1[O-] [Compound 26]", "quantitative_result": 1.06}

----------
The compounds listed here are annotated with their Capacity factors log k’70.
assay_method_text: RP-HPLC determination of capacity factors and log Po/w (Supelcosil LC-ABZ, MOPS buffer pH 7.4/methanol)
test_settings: 70% methanol, MOPS buffer pH 7.4

{"molecule_smiles": "Cc1c(C(=O)NCCc2ccccc2)[n+]([O-])c2ccccc2[n+]1[O-]", "Capacity factors log k’70": "−0.58"}
{"molecule_smiles": "Cc1c(C(=O)NCc2ccccc2)[n+]([O-])c2cc(Cl)ccc2[n+]1[O-]", "Capacity factors log k’70": "−0.36"}
{"molecule_smiles": "Cc1c(C(=O)NCc2ccc(Br)cc2)[n+]([O-])c2ccccc2[n+]1[O-]", "Capacity factors log k’70": "−0.24"}
{"molecule_smiles": "Cc1ccc(CNC(=O)c2c(C)[n+]([O-])c3cc(Cl)c(Cl)cc3[n+]2[O-])cc1", "Capacity factors log k’70": 0.14}
{"molecule_smiles": "Cc1c(C(=O)NCc2ccc(Br)cc2)[n+]([O-])c2cc(Cl)ccc2[n+]1[O-]", "Capacity factors log k’70": 0.02}
{"molecule_smiles": "Cc1ccc2c(c1)[n+]([O-])c(C(=O)NCCc1ccccc1)c(C)[n+]2[O-]", "Capacity factors log k’70": "−0.45"}
{"molecule_smiles": "Cc1ccc(CNC(=O)c2c(C)[n+]([O-])c3ccc(Cl)cc3[n+]2[O-])cc1", "Capacity factors log k’70": "−0.25"}
{"molecule_smiles": "Cc1c(C(=O)NCCc2ccccc2)[n+]([O-])c2cc(Cl)c(Cl)cc2[n+]1[O-]", "Capacity factors log k’70": "−0.06"}
